The measured values listed here are drawn from ChEMBL document CHEMBL5634070.

target: ATP-dependent Clp protease proteolytic subunit, mitochondrial (Homo sapiens, UniProt Q16740); test: Agonist activity at human CLpP by measuring alpha-casein hydrolysis using alpha-casein as substrate preincubated for 10 mins followed by substrate addition and measured after 120 mins by Coomassie brilliant blue staining based SDS-PAGE assay
Sequence (Q16740 whole entry): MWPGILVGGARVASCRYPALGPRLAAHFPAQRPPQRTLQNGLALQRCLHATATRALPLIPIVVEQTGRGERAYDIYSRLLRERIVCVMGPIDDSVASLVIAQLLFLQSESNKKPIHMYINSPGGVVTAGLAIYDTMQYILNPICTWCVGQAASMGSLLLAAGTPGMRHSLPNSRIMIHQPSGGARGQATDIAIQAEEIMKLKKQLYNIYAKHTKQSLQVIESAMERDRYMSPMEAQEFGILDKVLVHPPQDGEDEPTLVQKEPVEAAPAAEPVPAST
pEC50: −log10 of the molar value.
readout label: pEC50

{"smi": "CC[C@H](C)[C@H]1C(=O)N(Cc2ccc(OC)c3ccccc23)C[C@@H]2N(C(=O)NCc3ccc(Br)cc3)CCC(=O)N12", "pEC50": 5.66}
{"smi": "CC[C@H](C)[C@H]1C(=O)N(Cc2cccc3ccccc23)C[C@@H]2N(C(=O)NCc3ccc(Br)cc3)CCC(=O)N12", "pEC50": 5.55}
{"smi": "CC[C@H](C)[C@H]1C(=O)N(Cc2cccc3ccccc23)C[C@@H]2N(C(=O)NCc3ccc(F)c(F)c3)CCC(=O)N12", "pEC50": 5.43}
{"smi": "CC[C@H](C)[C@H]1C(=O)N(Cc2cccc3ccccc23)C[C@@H]2N(C(=O)NCc3ccc(F)c(Br)c3)CCC(=O)N12", "pEC50": 5.44}
{"smi": "CC[C@H](C)[C@H]1C(=O)N(Cc2cccc3ccccc23)C[C@@H]2N(C(=O)NCc3ccc(OC)cc3)CCC(=O)N12", "pEC50": 5.47}

I. CC[C@H](C)[C@H]1C(=O)N(Cc2cccc3ccccc23)C[C@@H]2N(C(=O)NCc3ccc(C)cc3)CCC(=O)N12
II. CC[C@H](C)[C@H]1C(=O)N(Cc2cccc3ccccc23)C[C@@H]2N(C(=O)NCc3c(F)c(F)c(F)c(F)c3F)CCC(=O)N12
## Task Between the two listed entries I and II , which has its pEC50 at the higher number? Output the label that corresponds to your choice.
## Result I

* * *

biological target: ATP-dependent Clp protease proteolytic subunit, mitochondrial (Homo sapiens, UniProt Q16740); assay: Agonist activity at human CLpP by measuring alpha-casein hydrolysis using alpha-casein as substrate preincubated for 10 mins followed by substrate addition and measured after 120 mins by Coomassie brilliant blue staining based SDS-PAGE assay
readout label: EC50 (µM)

1. CC[C@H](C)[C@H]1C(=O)N(Cc2cccc3ccccc23)C[C@@H]2N(C(=O)NCc3cc(F)c(Br)c(F)c3)CCC(=O)N12
2. CC[C@H](C)[C@H]1C(=O)N(Cc2cccc3ccccc23)C[C@@H]2N(C(=O)NCc3ccc(Br)cc3F)CCC(=O)N12
3. CC[C@H](C)[C@H]1C(=O)N(Cc2cccc3ccccc23)C[C@@H]2N(C(=O)NCc3ccc(F)cc3Cl)CCC(=O)N12
## Task Could you list the above molecules by EC50, going from the biggest number down? Answer format: the labels, ordered as requested.
## Result 3, 2, 1
(3: 8.7 µM, 2: 5.6 µM, 1: 3.6 µM)

* * *

tested on: NB-4; experiment: Antiproliferative activity against human NB4 cells assessed as inhibition of cell growth incubated for 72 hrs by CCK-8 assay; type: functional, cell-based; details: NB-4, 72 h
readout label: IC50 (µM)
Reply numerically in µM, unit not repeated.

## Task Entry `CC[C@H](C)[C@H]1C(=O)N(Cc2ccc(OC)c3ccccc23)C[C@@H]2N(C(=O)NCc3ccc(Br)cc3)CCC(=O)N12` has what IC50?
## Result 4.9

* * *

target: ATP-dependent Clp protease proteolytic subunit, mitochondrial (Homo sapiens); assay: Agonist activity at human CLpP by measuring alpha-casein hydrolysis using alpha-casein as substrate preincubated for 10 mins followed by substrate addition and measured after 120 mins by Coomassie brilliant blue staining based SDS-PAGE assay
pEC50: −log10 of the molar value.
readout label: pEC50

{"smi": "CC[C@H](C)[C@H]1C(=O)N(Cc2cccc3ccccc23)C[C@@H]2N(C(=O)NCc3ccc(C(F)(F)F)cc3)CCC(=O)N12", "pEC50": 5.11}
{"smi": "CC[C@H](C)[C@H]1C(=O)N(Cc2cccc3ccccc23)C[C@@H]2N(C(=O)NCc3ccc(F)c(OC)c3)CCC(=O)N12", "pEC50": 5.27}
{"smi": "CC[C@H](C)[C@H]1C(=O)N(Cc2cccc3ccccc23)C[C@@H]2N(C(=O)NC(C)(C)c3ccccc3)CCC(=O)N12", "pEC50": 5.37}
{"smi": "CC(C)C[C@H]1C(=O)N(Cc2cccc3ccccc23)C[C@@H]2N(C(=O)NCc3ccccc3)CCC(=O)N21", "pEC50": 5.14}

1. CC[C@H](C)[C@H]1C(=O)N(Cc2cccc3ccccc23)C[C@@H]2N(C(=O)NCc3ccc4c(c3)OCO4)CCC(=O)N12
2. CC[C@H](C)[C@H]1C(=O)N(Cc2cccc3ccccc23)C[C@@H]2N(C(=O)NCc3ccc4ccccc4c3)CCC(=O)N12
3. CC[C@H](C)[C@H]1C(=O)N(Cc2cccc3ccccc23)C[C@@H]2N(C(=O)NCc3ccc(F)c(Cl)c3)CCC(=O)N12
## Task Order by pEC50, ascending. Answer format: the labels, ordered as requested.
## Result 2, 1, 3
